system: rat adrenergic α1B receptor (Rattus norvegicus, UniProt P15823)
Construct: rat adrenergic α1B receptor obtained from Wistar Rat liver; from tissue; host or cells: Wistar rat liver
Sequence (P15823 1-515): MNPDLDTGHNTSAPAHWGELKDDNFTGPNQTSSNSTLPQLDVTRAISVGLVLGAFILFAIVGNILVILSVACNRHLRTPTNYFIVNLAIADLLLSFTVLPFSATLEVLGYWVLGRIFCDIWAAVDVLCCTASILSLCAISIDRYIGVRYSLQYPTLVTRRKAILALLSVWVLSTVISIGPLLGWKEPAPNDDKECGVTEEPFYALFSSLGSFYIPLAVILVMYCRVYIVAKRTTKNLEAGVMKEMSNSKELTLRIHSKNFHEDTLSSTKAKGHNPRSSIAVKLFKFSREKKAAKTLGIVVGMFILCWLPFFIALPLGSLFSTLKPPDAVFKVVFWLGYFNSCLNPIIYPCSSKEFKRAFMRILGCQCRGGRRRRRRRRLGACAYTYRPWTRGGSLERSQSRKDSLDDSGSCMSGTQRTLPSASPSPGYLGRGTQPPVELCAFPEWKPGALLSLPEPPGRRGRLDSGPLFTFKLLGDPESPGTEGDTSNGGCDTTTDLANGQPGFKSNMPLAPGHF
measurement_protocol: Radioligand binding, adrenergic α1B ([3H]Prazosin)
settings: compound at 0.1 μM; [3H]Prazosin; repeat assays, each datapoint shown; read-out: Percentage inhibition of ligand binding, Adrenergic α1B
Please use satisfied whenever inhibition at 0.1 µM is not below 10%, and not satisfied whenever it is.

>  <molecule>
Cc1ccc2c(c1)c1c(n2CC(O)c2ccc(F)cc2)CCN(C)C1 (single isomer, unassigned) [30b]

>  <system>
rat adrenergic α1B receptor (Rattus norvegicus, UniProt P15823)

>  <assigned_label>
satisfied

$$$$
>  <molecule>
CC(O)c1ccc2c(c1)c1c(n2CC(O)c2ccncc2)CCN(C)C1 (stereo not drawn)

>  <system>
rat adrenergic α1B receptor (Rattus norvegicus, UniProt P15823)

>  <assigned_label>
not satisfied

$$$$
>  <molecule>
CCc1ccc(CCn2c3c(c4cc(C)ccc42)CN(C)CC3)cn1

>  <system>
rat adrenergic α1B receptor (Rattus norvegicus, UniProt P15823)

>  <assigned_label>
satisfied

$$$$
>  <molecule>
CCN1CCc2c(c3cc(C)ccc3n2CCc2ccncc2)C1

>  <system>
rat adrenergic α1B receptor (Rattus norvegicus, UniProt P15823)

>  <assigned_label>
satisfied

$$$$

stdin: Answer whether inhibition at 0.1 µM of CN1CCc2c(n(CC(O)c3ccncc3)c3ccc(Cl)cc23)CC1 (stereo not drawn) [compound 15] is greater than or equal to 10%.
stdout: satisfied

stdin: // same read-out, input: CC(=O)c1ccc2c(c1)c1c(n2CC(O)c2ccncc2)CCN(C)C1 (single isomer, unassigned) [49a]
stdout: not satisfied

stdin: And "Cc1ccc2c(c1)c1c(n2CC2(c3ccccc3)OCCO2)CCN(C)C1" ?
stdout: not satisfied

stdin: Query CN1CCc2c(c3cccc(Cl)c3n2CC(C)(O)c2ccncc2)C1 (stereo not drawn) next
stdout: satisfied

stdin: CN1CCc2c(c3ccc(Cl)cc3n2CC(O)c2ccncc2)C1 (single isomer, unassigned) [53a] , same question.
stdout: satisfied

stdin: Please give the result for Cc1ccc2c(c1)c1c(n2CC(O)c2ccc(C(=O)O)cc2)CCN(C)C1 (stereo not drawn) too.
stdout: satisfied

stdin: What about CC(C)(O)CCN1CCc2c(c3cc(Cl)ccc3n2CC(O)c2ccncc2)C1 (single isomer, unassigned) [11a] ?
stdout: satisfied

stdin: Try this molecule too: Cc1ccc2c(c1)c1c(n2CC(O)c2ccncc2)CCN(C)C1 (stereo not drawn)
stdout: satisfied

stdin: Next entry: "CN1CCc2c(c3cc(Cl)ccc3n2CCc2cccnc2)C1"
stdout: satisfied

stdin: Please answer likewise for Cc1ccc2c(c1)c1c(n2CC(C)(O)c2cccnc2)CN(C)CC1 (single isomer, unassigned) [14a]
stdout: satisfied

###

system: rat adrenergic α1B receptor (Rattus norvegicus)
Construct: rat adrenergic α1B receptor obtained from Wistar Rat liver; from tissue; host or cells: Wistar rat liver
measurement_protocol: Radioligand binding, adrenergic α1B ([3H]Prazosin)
settings: compound at 0.1 μM; [3H]Prazosin; repeat assays, each datapoint shown; 0.1 µM
reported_endpoint: Percentage inhibition of ligand binding, Adrenergic α1B

Below, each entry is followed by its recorded Percentage inhibition of ligand binding, Adrenergic α1B result.
>  <compound>
COc1ccc(C(O)Cn2c3c(c4cc(C)ccc42)CCN(C)C3)cc1 (single isomer, unassigned) [20b]

>  <obs_value>
94%

$$$$
>  <compound>
Cc1ccc2c(c1)c1c(n2CC(O)c2ccncc2)CCN2CCCCC12 (single isomer, unassigned) [47c]

>  <obs_value>
6%

$$$$
>  <compound>
CN1CCc2c(c3ccc(C(F)(F)F)cc3n2CC(O)c2cccnc2)C1 (single isomer, unassigned) [40a]

>  <obs_value>
2%

$$$$

We now examine a further compound.
stdin: # query: Percentage inhibition of ligand binding, Adrenergic α1B | item CN1CCc2c(n(CC(O)c3ccncc3)c3ccc(Cl)cc23)CC1 (single isomer, unassigned) [15a] | system: rat adrenergic α1B receptor (Rattus norvegicus)
stdout: 81%

###

system: human recombinant adrenergic α2B receptor (Homo sapiens)
Construct: expressed in transfected cells; host or cells: CHO-K1
measurement_protocol: Radioligand binding, adrenergic α2B ([3H]Rauwolscine)
settings: read-out: Percentage inhibition of ligand binding, Adrenergic α2B (0.1 μM), compound at 0.1 μM; [3H]Rauwolscine; repeat datapoints each shown
Method: To evaluate in radioligand binding assays the activity of compounds of the invention, human recombinant adrenergic α2B receptor expressed in Chinese hamster ovary (CHO) K1 cells (Uhlen, S. et al, Eur. J. Pharmacol. 343(1):93, 1998) in a modified Tris-HCl buffer (50 mM Tris-HCl, pH 7.4, 12.5 mM MgCl2, 1 mM EDTA, 0.2% BSA) was used. […] Receptor proteins were filtered and washed, the filters were then counted to determine [3H]Rauwolscine specifically bound. […]
Rule: inhibition at 0.1 µM of 80% or more gives satisfied; anything lower gives not satisfied.

These recorded examples may help you get a feel for the data.
>  <molecule>
Cc1ccc2c(c1)c1c(n2CC(N)c2ccncc2)CCN(C)CC1 (single isomer, unassigned) [154b]

>  <assigned_label>
satisfied

$$$$
>  <molecule>
CCN1CCc2c(c3cc(C)ccc3n2CCc2ccc(C)cc2)C1

>  <assigned_label>
not satisfied

$$$$
>  <molecule>
Cc1ccc2c(c1)c1c(n2CCc2cncc(F)c2)CCN(C)C1

>  <assigned_label>
not satisfied

$$$$
>  <molecule>
CCN1CCc2c(c3cc(C)ccc3n2CCc2ccccc2)C1

>  <assigned_label>
not satisfied

$$$$
>  <molecule>
CC(=O)Nc1ccc(/C(C)=C\n2c3c(c4cc(C)ccc42)CN(C)CC3)cn1

>  <assigned_label>
not satisfied

$$$$
>  <molecule>
C/C(=C\n1c2c(c3cc(C)ccc31)CCN(C)CC2)c1ccncc1

>  <assigned_label>
satisfied

$$$$

stdin: Please tell me: is the molecule CC(O)(Cn1c2c(c3cc(Cl)ccc31)CNCC2)c1cccnc1 (single isomer, unassigned) [175a] at or over 80% in terms of inhibition at 0.1 µM?
stdout: satisfied

###

system: human recombinant adrenergic α1D receptor (Homo sapiens, UniProt P25100)
Construct: expressed in transfected cells; host or cells: HEK-293
Sequence (P25100 whole entry): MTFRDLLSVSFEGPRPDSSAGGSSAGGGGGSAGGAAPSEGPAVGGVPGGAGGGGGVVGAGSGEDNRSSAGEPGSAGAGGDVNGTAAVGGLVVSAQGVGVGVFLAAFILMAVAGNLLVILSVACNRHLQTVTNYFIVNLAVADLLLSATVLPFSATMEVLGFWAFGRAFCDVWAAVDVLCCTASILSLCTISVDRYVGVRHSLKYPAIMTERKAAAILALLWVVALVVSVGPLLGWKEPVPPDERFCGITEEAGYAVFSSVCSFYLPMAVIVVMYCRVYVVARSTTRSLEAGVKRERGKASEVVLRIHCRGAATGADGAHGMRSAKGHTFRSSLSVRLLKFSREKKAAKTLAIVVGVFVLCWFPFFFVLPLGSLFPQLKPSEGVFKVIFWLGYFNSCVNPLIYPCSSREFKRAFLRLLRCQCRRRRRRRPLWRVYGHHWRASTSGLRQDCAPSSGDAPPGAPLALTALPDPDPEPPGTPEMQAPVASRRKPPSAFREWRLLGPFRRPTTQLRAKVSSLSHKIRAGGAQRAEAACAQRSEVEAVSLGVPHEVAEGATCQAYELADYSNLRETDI
measurement_protocol: Radioligand binding, adrenergic α1D ([3H]Prazosin)
settings: compound at 0.1 μM; [3H]Prazosin; repeat datapoints each shown; 0.1 µM
reported_endpoint: Percentage inhibition of ligand binding, Adrenergic α1D (0.1 μM) (%)
Output spec: scalar in %, unitless text.

Use these answered entries as a reference point.
>  <molecule>
Cc1ccc2c(c1)c1c(n2CNc2ccccn2)CCN(C)C1

>  <reading_unit>
%

>  <obs_value>
26

$$$$
>  <molecule>
COc1ccc(/C(C)=C/n2c3c(c4cc(C)ccc42)CCN(C)CC3)cc1F

>  <reading_unit>
%

>  <obs_value>
49

$$$$
>  <molecule>
C/C(=C\n1c2c(c3cc(C)ccc31)CN(C)CC2)c1ccncn1

>  <reading_unit>
%

>  <obs_value>
48

$$$$
>  <molecule>
C/C(=C\n1c2c(c3cc(C)ccc31)CN(C)CC2)c1ccc(C)nc1

>  <reading_unit>
%

>  <obs_value>
55

$$$$

stdin: May I ask what Percentage inhibition of ligand binding, Adrenergic α1D (0.1 μM) has been recorded for Cc1ccc2c(c1)c1c(n2CC(C)(O)c2ccc(O)cc2)CCN(C)C1 (stereo not drawn) ?
stdout: 35

stdin: Repeat with "COc1ccc(/C(C)=C/n2c3c(c4cc(Cl)ccc42)CCN(C)CC3)cc1F"
stdout: 47

###

Reported pKi values follow for various molecules
system: human recombinant adrenergic α2B receptor (Homo sapiens, UniProt P18089)
Construct: expressed in transfected cells; host or cells: CHO-K1
Sequence (P18089 whole entry): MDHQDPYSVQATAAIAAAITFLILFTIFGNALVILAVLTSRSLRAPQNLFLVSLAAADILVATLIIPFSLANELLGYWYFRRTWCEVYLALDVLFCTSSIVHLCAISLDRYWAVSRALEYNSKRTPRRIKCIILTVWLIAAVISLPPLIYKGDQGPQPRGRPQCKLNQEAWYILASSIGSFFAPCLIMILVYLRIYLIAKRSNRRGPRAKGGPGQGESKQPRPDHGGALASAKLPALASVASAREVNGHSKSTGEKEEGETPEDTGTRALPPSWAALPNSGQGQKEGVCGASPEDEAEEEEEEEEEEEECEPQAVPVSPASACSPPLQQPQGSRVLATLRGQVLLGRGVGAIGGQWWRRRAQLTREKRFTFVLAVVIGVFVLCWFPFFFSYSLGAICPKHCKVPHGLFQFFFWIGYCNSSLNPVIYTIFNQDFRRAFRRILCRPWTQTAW
measurement_protocol: Radioligand binding, adrenergic α2B ([3H]Rauwolscine)
settings: read-out: Ki α2B
The scale used: pKi is minus the common logarithm of the concentration in molar units.

Answered cases to consult:
>  <molecule>
CN1CCc2c(c3c(Cl)cccc3n2CCc2ccccc2)C1 [compound 214]

>  <pKi>
7.89

$$$$
>  <molecule>
Cc1ccc2c(c1)c1c(n2C2=C(c3ccc4c(ccn4C)c3)CCC2)CCN(C)C1 [compound 191]

>  <pKi>
8.49

$$$$
>  <molecule>
Cc1ccc2c(c1)c1c(n2CC(c2ccncc2)N(C)C)CCN(C)C1 (single isomer, unassigned) [150a]

>  <pKi>
8.80

$$$$

Turning now to a further record.
stdin: So what does the record say about pKi for C/C(=C\n1c2c(c3cc(C)ccc31)CN(C)CC2)c1cnc(N(C)C)nc1 [compound 187] ?
stdout: 8.35
